Assay: Ratio of plasma concentration in mouse at 30 mg/kg, po after 0.5 hrs to IC50 for liver delta-5 desaturase (unknown origin)
Format: ADME, organism-based
Conditions: in vivo
# maps each entry to its Ratio
TEST READOUT: Ratio

{"STRUCTURE SMILES": "Clc1cccc(Nc2n[nH]c3ccccc23)c1", "TEST READOUT": "Ratio", "OBS VALUE": 151}
{"STRUCTURE SMILES": "Fc1cccc(Nc2n[nH]c3ccccc23)c1", "TEST READOUT": "Ratio", "OBS VALUE": 160}
{"STRUCTURE SMILES": "Fc1ccc2[nH]nc(Nc3cccc(Cl)c3)c2c1", "TEST READOUT": "Ratio", "OBS VALUE": 242}
{"STRUCTURE SMILES": "COc1ccc2[nH]nc(Nc3cccc(Cl)c3)c2c1", "TEST READOUT": "Ratio", "OBS VALUE": 652}
